assay: ACEA_ER_AUC_viability: ACEA Biosciences xCELLigence Real-Time Cell Analysis on Estrogen Receptor Agonism for Viability (AID 2283782);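 note: continuous compound exposure with impedance area under curve over 80 h; hit means loss of impedance signal meaning reduced cell growth or viability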
Results filed as inconclusive are left out. Calls of active or inactive are those of the source. Rule for the calls: active = hit-call score of the fitted dose curve at least 0.9, where 1 is the maximum; inconclusive = response in the unintended direction; inactive = score below 0.9.
Use one of these outcomes when replying: t = active, f = inactive

### Prompt Per the assay record, what outcome was assigned to CCc1ccc(CCOc2ccc(CC3SC(=O)NC3=O)cc2)nc1 (stereo not drawn) ?
### Response f

### Prompt Per the assay record, what outcome was assigned to "Cc1cc(CCN2CCN(c3nsc4ccccc34)CC2)cc2c1NC(=O)CC2(C)C" ?
### Response t

### Prompt Per the assay record, what outcome was assigned to "Cc1cc(C)c(O)c(C)c1" ?
### Response f

----------
Target: human Retinoid X Receptor beta (RXRb), RXRB (gene 6257) (UniProt P28702)
Sequence (P28702 whole entry, looked up): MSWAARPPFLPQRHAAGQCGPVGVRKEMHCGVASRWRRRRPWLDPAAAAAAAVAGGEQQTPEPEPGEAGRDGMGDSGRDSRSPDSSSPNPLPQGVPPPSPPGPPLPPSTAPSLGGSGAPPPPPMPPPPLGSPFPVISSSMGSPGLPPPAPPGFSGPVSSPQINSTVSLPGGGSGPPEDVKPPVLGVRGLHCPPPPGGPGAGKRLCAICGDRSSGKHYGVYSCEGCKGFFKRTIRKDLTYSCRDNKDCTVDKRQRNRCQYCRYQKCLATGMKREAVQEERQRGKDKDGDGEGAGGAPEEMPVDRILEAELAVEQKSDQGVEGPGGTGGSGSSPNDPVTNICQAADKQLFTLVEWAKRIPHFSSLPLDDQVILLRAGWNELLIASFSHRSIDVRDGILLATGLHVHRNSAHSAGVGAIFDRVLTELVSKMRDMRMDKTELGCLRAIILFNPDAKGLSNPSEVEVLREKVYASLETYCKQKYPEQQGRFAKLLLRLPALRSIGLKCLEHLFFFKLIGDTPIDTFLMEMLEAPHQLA
Test: ATG_RXRb_TRANS: Attagene TRANS-FACTORIAL HepG2 Assay for human Retinoid X Receptor beta (RXRb) (AID 2283013)
Description: ATG_TRANS is a cell-based, multiplexed-readout assay that uses HepG2, a human liver cell line, with measurements taken at 24 hours after chemical dosing in a 24-well plate.ATG_RXRb_TRANS is one of 30 assay component(s) measured or calculated from the ATG_TRANS assay. […] This assay endpoint, ATG_RXRb_TRANS, was analyzed in the positive analysis fitting direction relative to DMSO as the negative control and baseline of activity. […]
Results filed as inconclusive are left out. Calls of active or inactive are those of the source. Rule for the calls: active = hit-call score of the fitted dose curve at least 0.9, where 1 is the maximum; inconclusive = response in the unintended direction; inactive = score below 0.9.
Use one of these outcomes when replying: active, inactive

### Prompt Per the assay record, what outcome was assigned to COCC(C)O (stereo not given) ?
### Response inactive

### Prompt Per the assay record, what outcome was assigned to "Cc1cc(C)c(O)c(C)c1" ?
### Response inactive

### Prompt Per the assay record, what outcome was assigned to "O=c1c(-c2ccc(O)cc2)coc2cc(O)ccc12" ?
### Response inactive

### Prompt Per the assay record, what outcome was assigned to "O=C1OC2(c3ccccc31)c1cc(Br)c(O)c(Br)c1Oc1c2cc(Br)c(O)c1Br" ?
### Response inactive

### Prompt Per the assay record, what outcome was assigned to "CC(C)(C)CC(C)(C)c1ccc(O)c(-n2nc3ccccc3n2)c1" ?
### Response inactive

### Prompt Per the assay record, what outcome was assigned to "NCC(F)(F)C(F)(F)C(F)(F)C(F)(F)C(F)(F)C(F)(F)C(F)(F)F" ?
### Response inactive

### Prompt Per the assay record, what outcome was assigned to "CCCOc1sc(C(=O)N2CCC(c3cc(CN)ccc3F)CC2)c(C)c1Br" ?
### Response inactive

### Prompt Per the assay record, what outcome was assigned to CC(O)C(=O)O (stereo not given) ?
### Response inactive

### Prompt Per the assay record, what outcome was assigned to "C[C@@H]1C[C@H]2[C@@H]3CCC4=CC(=O)C=C[C@]4(C)[C@@]3(F)[C@@H](O)C[C@]2(C)[C@@]1(O)C(=O)COP(=O)(O)O" ?
### Response inactive

### Prompt Per the assay record, what outcome was assigned to "CCC(=C(c1ccc(O)cc1)c1ccc(OCCN(C)C)cc1)c1ccccc1" ?
### Response inactive

### Prompt Per the assay record, what outcome was assigned to "CCCCCCCCCCCCCCCS(=O)(=O)Oc1ccccc1" ?
### Response inactive

### Prompt Per the assay record, what outcome was assigned to "CC(=O)CC(C)(C)O" ?
### Response inactive

### Prompt Per the assay record, what outcome was assigned to N#C[C@@H]1CC(F)(F)CN1C(=O)CNC1CC2CCC(C1)N2c1ncccn1 (stereo not given in full) ?
### Response inactive

### Prompt Per the assay record, what outcome was assigned to "OCCC(F)(F)C(F)(F)C(F)(F)C(F)(F)C(F)(F)C(F)(F)C(F)(F)C(F)(F)F" ?
### Response inactive

### Prompt Per the assay record, what outcome was assigned to "c1ccc2cc3c(ccc4ccccc43)cc2c1" ?
### Response inactive

### Prompt Per the assay record, what outcome was assigned to "O=C(O)c1ccccc1C(c1ccc(O)cc1)c1ccc(O)cc1" ?
### Response inactive

### Prompt Per the assay record, what outcome was assigned to "CN(C)C=O" ?
### Response active

### Prompt Per the assay record, what outcome was assigned to "CCCOC(=O)c1ccc(O)cc1" ?
### Response inactive

### Prompt Per the assay record, what outcome was assigned to "CCN(CC)CCNc1ccc(CNC=O)c2sc3ccc(OC)cc3c(=O)c12" ?
### Response active

### Prompt Per the assay record, what outcome was assigned to "OC1CCCCC1" ?
### Response inactive

### Prompt Per the assay record, what outcome was assigned to "Oc1cc2ccccc2c2ccccc12" ?
### Response inactive

### Prompt Per the assay record, what outcome was assigned to "c1ccc2c(c1)ccc1ccccc12" ?
### Response active

### Prompt Per the assay record, what outcome was assigned to "CC(C)CCCCCCOC(=O)CCCCC(=O)OCCCCCCC(C)C" ?
### Response active

### Prompt Per the assay record, what outcome was assigned to "COc1cc(CCC(=O)CC(=O)CCc2ccc(O)c(OC)c2)ccc1O" ?
### Response inactive

### Prompt Per the assay record, what outcome was assigned to CCc1ccc(CCOc2ccc(CC3SC(=O)NC3=O)cc2)nc1 (stereo not given) ?
### Response inactive

----------
molecular target: human Esterase Plasma (ES), BCHE (gene 590) (UniProt P06276); experiment: NVS_ENZ_hES: NovaScreen (NVS) Enzymatic Assay for human Esterase Plasma (ES) (AID 2283157)
Sequence (P06276 whole entry, looked up): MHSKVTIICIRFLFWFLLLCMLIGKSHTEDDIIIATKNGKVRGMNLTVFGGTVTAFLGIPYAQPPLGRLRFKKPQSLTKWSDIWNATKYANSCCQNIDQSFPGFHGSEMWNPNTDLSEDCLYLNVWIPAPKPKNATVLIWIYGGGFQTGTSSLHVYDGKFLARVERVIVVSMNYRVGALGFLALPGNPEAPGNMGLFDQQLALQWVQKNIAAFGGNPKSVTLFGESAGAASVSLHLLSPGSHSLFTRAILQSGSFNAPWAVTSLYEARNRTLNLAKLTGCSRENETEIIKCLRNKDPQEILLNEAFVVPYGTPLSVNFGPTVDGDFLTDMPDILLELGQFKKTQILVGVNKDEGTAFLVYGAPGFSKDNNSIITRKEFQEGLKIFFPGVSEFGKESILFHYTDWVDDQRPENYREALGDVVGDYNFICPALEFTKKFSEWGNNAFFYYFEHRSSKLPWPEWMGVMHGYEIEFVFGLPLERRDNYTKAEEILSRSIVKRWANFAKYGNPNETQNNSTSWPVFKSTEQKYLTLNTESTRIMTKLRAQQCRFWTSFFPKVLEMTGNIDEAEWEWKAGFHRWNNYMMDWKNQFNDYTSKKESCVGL
Results filed as inconclusive are left out. Calls of active or inactive are those of the source. How the source made its calls: active means hit-call score of the fitted dose curve at least 0.9, where 1 is the maximum; inconclusive means response in the unintended direction; inactive means score below 0.9.
Use one of these outcomes when replying: active, inactive

### Prompt Per the assay record, what outcome was assigned to "CC#C[C@]1(O)CC[C@H]2[C@@H]3CCC4=CC(=O)CCC4=C3[C@@H](c3ccc(N(C)C)cc3)C[C@@]21C" ?
### Response active

### Prompt Per the assay record, what outcome was assigned to "Cc1cc(CCN2CCN(c3nsc4ccccc34)CC2)cc2c1NC(=O)CC2(C)C" ?
### Response active

### Prompt Per the assay record, what outcome was assigned to "CC(=O)NC1(c2cccc(F)c2)CCN(CC[C@@]2(c3ccc(Cl)c(Cl)c3)CN(c3ccccc3)C(=O)CO2)CC1" ?
### Response active

### Prompt Per the assay record, what outcome was assigned to CCCCC(CC)COC(=O)CCCCC(=O)OCc1ccccc1 (centres undefined) ?
### Response inactive

----------
read-out: Tumor necrosis factor (Homo sapiens) (UniProt P01375); assay: BSK_LPS_TNFa: BioMAP Diversity Plus: LPS Assay for Tumour Necrosis Factor alpha (TNFa) Biomarker Activity (AID 2283085); settings: primary human HUVEC with PBMC; actives raise or lower the signal
Sequence (P01375 whole entry, looked up): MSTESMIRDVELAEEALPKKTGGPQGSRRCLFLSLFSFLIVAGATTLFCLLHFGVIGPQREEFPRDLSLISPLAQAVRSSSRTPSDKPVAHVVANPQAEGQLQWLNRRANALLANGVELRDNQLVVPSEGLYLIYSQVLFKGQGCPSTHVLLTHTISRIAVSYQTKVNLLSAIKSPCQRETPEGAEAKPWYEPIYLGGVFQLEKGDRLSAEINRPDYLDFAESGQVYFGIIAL
Activity calls are given as the source filed them. The calls were made as follows: active = hit-call score of the fitted dose curve at least 0.9, where 1 is the maximum; inactive = score below 0.9.
Use one of these outcomes when replying: 1 = active, 0 = inactive

### Prompt Per the assay record, what outcome was assigned to "O=C(O)c1ccccc1C(c1ccc(O)cc1)c1ccc(O)cc1" ?
### Response 0

### Prompt Per the assay record, what outcome was assigned to "C#C[C@]1(O)CC[C@H]2[C@@H]3CCC4=CC(=O)CC[C@@H]4[C@H]3CC[C@@]21C" ?
### Response 1

### Prompt Per the assay record, what outcome was assigned to "CN1CCN(c2ccccc2/C=C2\SCCN(c3ccc(Cl)c(Cl)c3)C2=O)CC1" ?
### Response 1

### Prompt Per the assay record, what outcome was assigned to "c1ccc2c(c1)ccc1ccccc12" ?
### Response 0

### Prompt Per the assay record, what outcome was assigned to "CCOC(=O)CC(O)(CC(=O)OCC)C(=O)OCC" ?
### Response 0

### Prompt Per the assay record, what outcome was assigned to "CC#C[C@]1(O)CC[C@H]2[C@@H]3CCC4=CC(=O)CCC4=C3[C@@H](c3ccc(N(C)C)cc3)C[C@@]21C" ?
### Response 0

### Prompt Per the assay record, what outcome was assigned to "CN1CCC[C@H]1c1cccnc1" ?
### Response 0

### Prompt Per the assay record, what outcome was assigned to "CC[C@H](C)[C@@H](C(=O)O)n1sc2ccccc2c1=O" ?
### Response 1

### Prompt Per the assay record, what outcome was assigned to CCc1nn(C2CCCCC2)c2cc(C3(C#N)CCC(C(=O)O)CC3)ccc12 (centres undefined) ?
### Response 1

### Prompt Per the assay record, what outcome was assigned to "CCCCCCCCCCCCN1CCCC1=O" ?
### Response 0

### Prompt Per the assay record, what outcome was assigned to "c1ccc2c(c1)Cc1ccccc1-2" ?
### Response 0

### Prompt Per the assay record, what outcome was assigned to CCC(C)(C)C1CCC(O)CC1 (centres undefined) ?
### Response 0

### Prompt Per the assay record, what outcome was assigned to "Oc1cc2ccccc2c2ccccc12" ?
### Response 1

### Prompt Per the assay record, what outcome was assigned to "OC1CCCCC1" ?
### Response 0

Measured values drawn from PubChem BioAssay (EPA / NIEHS) for this set.
